Cited source: the kinase profiling compilation of Christmann-Franck et al. (2016)

I'd be grateful if you could share measured kinase still bound, per cent of control for these entries.
target: UniProt:O14920; assay: KINOMEscan competition binding; details: compound 10.0 µM
Sequence (O14920 whole entry, looked up): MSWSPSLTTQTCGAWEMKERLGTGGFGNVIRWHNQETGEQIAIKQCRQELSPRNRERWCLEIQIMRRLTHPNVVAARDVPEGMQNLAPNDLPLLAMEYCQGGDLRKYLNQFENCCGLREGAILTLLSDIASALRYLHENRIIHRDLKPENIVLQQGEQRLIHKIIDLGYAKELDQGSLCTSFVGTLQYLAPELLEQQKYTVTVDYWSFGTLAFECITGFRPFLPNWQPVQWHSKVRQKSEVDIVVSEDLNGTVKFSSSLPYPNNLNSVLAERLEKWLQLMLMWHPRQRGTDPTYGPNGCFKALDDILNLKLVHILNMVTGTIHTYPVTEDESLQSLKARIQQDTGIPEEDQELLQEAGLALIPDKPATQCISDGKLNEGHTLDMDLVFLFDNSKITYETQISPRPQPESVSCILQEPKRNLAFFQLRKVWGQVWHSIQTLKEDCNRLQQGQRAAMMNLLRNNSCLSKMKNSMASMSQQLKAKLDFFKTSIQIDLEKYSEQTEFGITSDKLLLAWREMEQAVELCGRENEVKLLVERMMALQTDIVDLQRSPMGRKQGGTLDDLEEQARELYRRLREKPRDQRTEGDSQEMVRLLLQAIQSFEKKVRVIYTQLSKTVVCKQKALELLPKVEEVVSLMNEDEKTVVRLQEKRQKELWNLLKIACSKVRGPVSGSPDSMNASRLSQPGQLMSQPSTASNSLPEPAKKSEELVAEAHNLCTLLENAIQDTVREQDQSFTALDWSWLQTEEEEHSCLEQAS
The response must be a number in % with no trailing unit.

Query :: // query kinase still bound, per cent of control value for entry COc1cc(N2CCC(C(N)=O)CC2)ccc1Nc1nc(N)c(Cl)c(Nc2ccccc2S(=O)(=O)C(C)C)n1
Result :: 100

Query :: Subsequent entry: O=c1[nH]c2ccccc2n1C1CCN(Cc2ccc(-c3nc4cc5[nH]cnc5cc4nc3-c3ccccc3)cc2)CC1
Result :: 79

Query :: Next molecule: CCc1nc(-c2cccc(C)c2)c(-c2ccnc(NC(=O)c3ccccc3)c2)s1
Result :: 100

Query :: Would you mind doing N#C/C(=C1/Nc2ccccc2S1)c1ccnc(NCCc2cccnc2)n1 as well?
Result :: 68

Query :: Record: CNC(=O)Nc1ccc(-c2nc(N3CC4CCC(C3)O4)c3cnn(C4CCC5(CC4)OCCO5)c3n2)cc1
Result :: 79

Query :: // next record Cc1cn(-c2cc(C(=O)Nc3ccc(C)c(NC(=O)c4ccno4)c3)cc(C(F)(F)F)c2)cn1
Result :: 100

Query :: What about COc1cc2ncnc(Nc3cccc(Cl)c3)c2cc1OC ?
Result :: 66

Query :: CCOc1cc(N2CCC(O)CC2)ccc1Nc1ncc2c(n1)N(C)c1ccccc1C(=O)N2C , same question.
Result :: 100

----------
target: MET (human); assay: KINOMEscan competition binding; conditions: compound 10.0 µM
readoutKind: kinase still bound, per cent of control

Query :: Tell me the measured kinase still bound, per cent of control of CCCS(=O)(=O)Nc1ccc(F)c(C(=O)c2c[nH]c3ncc(Cl)cc23)c1F , please.
Result :: 77%

Query :: And COc1cc(C)c(Sc2cnc(NC(=O)c3ccc(CNC(C)C(C)C)cc3)s2)cc1C(=O)N1CCN(C(C)=O)CC1 (stereo not drawn) ?
Result :: 29%

Query :: Repeat with COc1cc(N2CCC(C(N)=O)CC2)ccc1Nc1nc(N)c(Cl)c(Nc2ccccc2S(=O)(=O)C(C)C)n1
Result :: 100%

----------
target: PKMYT1 (human); assay: KINOMEscan competition binding; conditions: compound 10.0 µM
Consider the following compounds; for each one, report its kinase still bound, per cent of control.
Give a bare numeral; the unit % is implied.

Query :: Record request: kinase still bound, per cent of control value, item N#Cc1cc(-c2ccnc(Nc3ccc(-n4cnc(-c5cccnc5)n4)cc3)n2)cc(N2CCOCC2)c1
Result :: 65

Query :: Next entry: COc1cc2c(Nc3ccc(NC(=O)c4ccccc4)cc3)ncnc2cc1OCCCN1CCOCC1
Result :: 89

Query :: // same read-out, input: COc1ccc(N(C(=O)Oc2cc(C(=O)Nc3cccc(C(F)(F)F)c3)ccc2C)c2ccnc(Nc3ccc(N4CCN(C)CC4)cc3)n2)c(OC)c1
Result :: 100

----------
biological target: SLK (human); test: KINOMEscan competition binding; conditions: compound 10.0 µM
Please respond with yes (1) when measured kinase still bound, per cent of control is strictly beneath 60%, and with no (0) in all other cases.

Query :: # TODO verify kinase still bound, per cent of control < 60% strictly for this compound: CC1=C(C(=O)Nc2cc3cn[nH]c3cc2F)C(c2ccc(C(F)(F)F)cc2)CC(=O)N1 (stereo not drawn)
Result :: no (0)

Query :: Moving on to CCN(CCO)CCCOc1ccc2c(Nc3cc(CC(=O)Nc4cccc(F)c4)[nH]n3)ncnc2c1
Result :: no (0)

Query :: Item: N#C/C(=C1/Nc2ccccc2S1)c1ccnc(NCCc2cccnc2)n1
Result :: no (0)

Query :: Another compound to check: COc1cc2c(Nc3ccc(NC(=O)c4ccccc4)cc3)ncnc2cc1OCCCN1CCOCC1
Result :: yes (1)

Query :: Thanks! And Cc1cn(-c2cc(C(=O)Nc3ccc(C)c(NC(=O)c4ccno4)c3)cc(C(F)(F)F)c2)cn1 ?
Result :: no (0)

Query :: For CCOc1cc(N2CCC(O)CC2)ccc1Nc1ncc2c(n1)N(C)c1ccccc1C(=O)N2C then?
Result :: no (0)

Query :: // same read-out, input: COc1cc(N2CCC(C(N)=O)CC2)ccc1Nc1nc(N)c(Cl)c(Nc2ccccc2S(=O)(=O)C(C)C)n1
Result :: yes (1)
